These entries and their values trace back to ChEMBL document CHEMBL3867432.

# METHOD: Antiproliferative activity against human SW480 cells after 72 hrs by MTT assay
# Type: functional, cell-based
# PARTICULARS: SW480, 72 h
MEASURED ATTRIBUTE: pIC50
Reminder that pIC50 means the negative base-10 logarithm of the concentration expressed in mol/L.

Inquiry: What value of pIC50 has been reported for the following molecule? Cn1cnc2c(F)c(Nc3ccc(Br)cc3Cl)c(C(=O)NOCCO)cc21
Reply text: 6.37
